Taken from paper PMC8364686.

assayMethodText: Plasma pharmacokinetics of BI 187004 after single oral doses (LC–MS/MS)
experimentalParameters: male, human, plasma, po, 20 mg, BI 187004 plasma concentrations, 20 mg single oral, planned time 3 h, Median
measurementType: concentration at 3 h (nM)
One number for each entry, in nM.

**Q:** concentration at 3 h lookup needed for "N#Cc1ccc2c(c1)[C@H]1CCCN(C(=O)c3ccc4[nH]cnc4c3)[C@H]1C2" , thanks.
**A:** 770

###

assayMethodText: Plasma pharmacokinetics of BI 187004 after single oral doses (LC–MS/MS)
experimentalParameters: male, human, plasma, po, 40 mg, BI 187004 plasma concentrations, 40 mg single oral, planned time 2 h, gMean
measurementType: concentration at 2 h (nM)
Give bare numbers, in nM.

**Q:** Which value of concentration at 2 h has been reported for N#Cc1ccc2c(c1)[C@H]1CCCN(C(=O)c3ccc4[nH]cnc4c3)[C@H]1C2 [BI 187004] in the records?
**A:** 1700
